target: Yersinia protein tyrosine phosphatase (YOP) (Yersinia enterocolitica, UniProt P15273)
Sequence (P15273 whole entry): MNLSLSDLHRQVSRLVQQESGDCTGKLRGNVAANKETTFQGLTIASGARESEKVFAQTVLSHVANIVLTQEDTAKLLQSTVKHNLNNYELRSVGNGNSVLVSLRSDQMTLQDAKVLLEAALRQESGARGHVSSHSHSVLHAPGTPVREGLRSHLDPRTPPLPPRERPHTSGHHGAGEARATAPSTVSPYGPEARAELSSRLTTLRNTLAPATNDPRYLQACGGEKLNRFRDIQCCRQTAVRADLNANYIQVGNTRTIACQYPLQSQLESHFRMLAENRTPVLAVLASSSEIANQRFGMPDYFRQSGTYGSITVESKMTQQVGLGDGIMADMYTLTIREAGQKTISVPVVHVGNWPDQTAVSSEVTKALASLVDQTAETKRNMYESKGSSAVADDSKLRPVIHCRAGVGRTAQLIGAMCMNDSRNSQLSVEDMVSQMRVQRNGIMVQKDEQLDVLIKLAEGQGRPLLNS
Test readout: pIC50
pIC50 is defined as minus the log10 of a concentration measured in mol/L.

pIC50 reported for this compound [Na+].[Na+].[Na+].[O]=[V]([O-])([O-])[O-] [sodium orthovanadate, Sodium orthovanadate] : 6.60
